Quick reference for growth among some compounds
system: 786-0 renal; test: NCI-60 one-dose screen, 48 h (100 = growth as untreated, 0 = no growth, -100 = all killed); conditions: 10 µM unless noted
About 83,000 compounds went through this panel and 20% of them were active in at least one assay; those are over-represented in the sample as a whole.
Give just the numeric value; % need not be written.

Answered examples (2):
{"columns": ["compound", "endpoint_label", "unit_of_measurement", "numeric_value"],
 "data": [
  ["Cc1cc2c(c(C)c1Cl)C(=O)/C(=C/c1ccc(O)c(O)c1)O2", "growth", "%", 107],
  ["Cn1ccnc1C(=O)/C=C/c1ccc(CC(=O)Nc2ccc(F)cc2)cc1", "growth", "%", 30.4]
]}

Enquiry: // growth lookup, key: `COc1cc2c(c(O)c1Br)C(=O)c1c(O)cc(C[C@H](C)O)cc1[C@H]2[C@H]1c2cc(C[C@H](C)O)cc(O)c2C(=O)c2c1cc(OC)c(Br)c2O`
Return: 10.4

Enquiry: // growth lookup, key: `O=C1/C=C/[C@@H](O)[C@@H]2C[C@@H](O)C[C@H]2/C=C/CCC[C@H](CCc2ccc3ncccc3c2)O1`
Return: -50.2

###

system: HOP-92 NSCLC; assay: NCI-60 one-dose screen, 48 h (100 = growth as untreated, 0 = no growth, -100 = all killed); settings: 10 µM unless noted
The panel holds about 83,000 compounds, 20% with a hit somewhere; the sample as a whole holds those more often. Active and inactive are the calls of the source. The calls were made as follows: active = growth percent below 10; inactive = the rest.
Quick reference for growth among some compounds

{"columns": ["compound", "growth"],
 "data": [
  ["O=S(=O)(NCCNc1nccc(-c2c(-c3cccc(F)c3)nc3sccn23)n1)c1ccc(Br)cc1", "76.7% (inactive)"],
  ["COC(=O)C1=C(C(=O)ON)[C@@H]2C=C[C@@]1([C@@H](Cc1ccccc1)Nc1ccccc1)O2", "63.1% (inactive)"],
  ["C/C(=N\\NC(=O)CSc1nc2ccccc2c(=O)n1Cc1ccc(S(N)(=O)=O)cc1)c1ccc(F)cc1", "124% (inactive)"],
  ["CN1CCN(CCNc2nccc(-c3c(-c4cccc(O)c4)nc4sccn34)n2)S1(=O)=O", "49% (inactive)"],
  ["COc1cc2oc(-c3cccc(C(=O)Nc4ccc(Br)cc4)c3)cc(=O)c2c(OC)c1OC", "50.9% (inactive)"],
  ["CCN(CC)CCCC(C)Nc1cc(O)cc2cccnc12 (centres undefined)", "89.4% (inactive)"],
  ["C=CCn1c(-c2ccc(-c3nc4ccc(C)cc4[nH]3)cc2)n[nH]c1=S", "117% (inactive)"],
  ["O=C(Nc1cccc(C2=NCCN2)c1)c1ccc(-c2ccc(C(=O)Nc3cccc(C4=NCCN4)c3)cc2)cc1", "90.9% (inactive)"]
]}

Enquiry: // growth lookup, key: `CCNC(=O)Oc1ccc(/C(=C(\C)c2ccccc2)c2ccc(OCCCN(C)C)cc2)cc1`
Return: 69.4% (inactive)

###

system: RPMI-8226 leukemia; assay: NCI-60 one-dose screen, 48 h; settings: 10 µM unless noted
The panel holds about 83,000 compounds, 20% with a hit somewhere; the sample as a whole holds those more often. Calls of active or inactive are those of the source. The calls were made as follows: active = growth percent below 10; inactive = the rest.
In this exercise, the only acceptable responses are active, inactive

Completed entries (count: 3):
{"columns": ["compound", "assigned_category"],
 "data": [
  ["CCN1CCN(CCNc2nccc(-c3c(-c4cccc(OC)c4)nc4occn34)n2)S1(=O)=O", "inactive"],
  ["COc1ccc(C(=O)C2C(C#N)C(C#N)C3c4ccccc4C=CN23)cc1 (configuration not stated)", "inactive"],
  ["CCN(CC)c1ccc(/C=N/NC(=O)CSc2nc3ccccc3c(=O)n2Cc2ccc(S(N)(=O)=O)cc2)c(O)c1", "inactive"]
]}

Enquiry: Kindly provide the recorded test outcome for the following compound: `NCCCCCCNc1cc(-c2cccc(OC(F)(F)F)c2)nc2ccc(N3CCCC3)cc12`
Return: active

Enquiry: Kindly provide the recorded test outcome for the following compound: `O=C(CCN1CCCC1)Nc1ccc2c(Nc3ccc(Br)cc3)c3ccccc3nc2c1`
Return: active

Enquiry: Kindly provide the recorded test outcome for the following compound: COc1cc2c(c(OC)c1OC)-c1ccc(NNC(=S)N(Cc3cccc(C[N+](Cc4cccc(CNC56CC7CC(CC(C7)C5)C6)c4)(Cc4cccc(CNC56CC7CC(CC(C7)C5)C6)c4)Cc4cccc(CN(C(=S)NNc5ccc6c(cc5=O)[C@@H](NC(C)=O)CCc5cc(OC)c(OC)c(OC)c5-6)C56CC7CC(CC(C7)C5)C6)c4)c3)C34CC5CC(CC(C5)C3)C4)c(=O)cc1[C@@H](NC(C)=O)CC2 (some centres not stated)
Return: active

Enquiry: Kindly provide the recorded test outcome for the following compound: `COc1ccc(/C=C/c2nc(Nc3ccc(S(=O)(=O)NC(C)=O)cc3)c3ccccc3n2)cc1`
Return: inactive
